assay: In vitro inhibitory concentration against cyclin-dependent kinase 1; parameters: species or system Homo sapiens
I'd appreciate it if you could supply pIC50 values for the items below.
In textbook form, pIC50 equals minus log to base ten of the concentration in mol/L.

# input Quick one: pIC50 for Nc1nc(Nc2ccc([N+](=O)[O-])cc2)ccc1C(=O)c1c(F)cccc1F ?
# output 6.02

# input Quick one: pIC50 for CN(C)S(=O)(=O)c1ccc(Nc2ccc(C(=O)c3c(F)cccc3F)c(N)n2)cc1 ?
# output 6.23

# input Quick one: pIC50 for CCCCOc1cc(N)nc(N)c1C(=O)c1c(F)cccc1F ?
# output 5.92

# input Quick one: pIC50 for Nc1ccc(C(=O)c2c(F)cccc2F)c(N)n1 ?
# output 5.59

# input Quick one: pIC50 for NC(=O)c1ccc(Nc2ccc(C(=O)c3c(F)cccc3F)c(N)n2)cc1 ?
# output 6.02

# input Quick one: pIC50 for Nc1nc(Nc2ccccc2)ccc1C(=O)c1c(F)cccc1F ?
# output 4.66

# input Quick one: pIC50 for CCCCOc1cc(Nc2ccc(S(N)(=O)=O)cc2)nc(N)c1C(=O)c1c(F)cccc1F ?
# output 6.59

# input Quick one: pIC50 for CN(C)S(=O)(=O)c1ccc(Nc2ccc(C(=O)c3ccccc3)c(N)n2)cc1 ?
# output 5.66

# input Quick one: pIC50 for Nc1nc(Nc2cccc([N+](=O)[O-])c2)ccc1C(=O)c1c(F)cccc1F ?
# output 5.57

# input Quick one: pIC50 for CN(C)S(=O)(=O)c1ccc(Nc2ccc(C(=O)c3cccs3)c(N)n2)cc1 ?
# output 4.90

# input Quick one: pIC50 for CN(C)S(=O)(=O)c1ccc(Nc2ccc(C(=O)c3ccco3)c(N)n2)cc1 ?
# output 4.97

# input Quick one: pIC50 for CN(C)S(=O)(=O)c1ccc(Nc2ccc(C(=O)c3ccccc3F)c(N)n2)cc1 ?
# output 5.71

# input Quick one: pIC50 for Nc1nc(Nc2ccccn2)ccc1C(=O)c1c(F)cccc1F ?
# output 4.91

# input Quick one: pIC50 for CCCCOc1cc(Nc2ccc(S(=O)(=O)N(C)C)cc2)nc(N)c1C(=O)c1c(F)cccc1F ?
# output 6.00

# input Quick one: pIC50 for Nc1nc(Nc2ccc(NS(=O)(=O)c3ccccc3)cc2)ccc1C(=O)c1c(F)cccc1F ?
# output 6.13

# input Quick one: pIC50 for CNc1ccc(Nc2ccc(C(=O)c3c(F)cccc3F)c(N)n2)cc1 ?
# output 5.94

# input Quick one: pIC50 for Nc1ccccc1Nc1ccc(C(=O)c2c(F)cccc2F)c(N)n1 ?
# output 4.94

# input Quick one: pIC50 for Nc1ccc(Nc2ccc(C(=O)c3c(F)cccc3F)c(N)n2)cc1 ?
# output 6.12

# input Quick one: pIC50 for Nc1ccc(C(=O)c2ccccc2)c(N)n1 ?
# output 5.96

# input Quick one: pIC50 for Nc1ccc(C(=O)c2ccccc2F)c(N)n1 ?
# output 5.09

# input Quick one: pIC50 for N#Cc1ccc(Nc2ccc(C(=O)c3c(F)cccc3F)c(N)n2)cc1 ?
# output 5.86

# input Quick one: pIC50 for Nc1nc(Nc2cccc(Cl)c2)ccc1C(=O)c1c(F)cccc1F ?
# output 5.21

# input Quick one: pIC50 for Nc1nc(Nc2ccc(S(N)(=O)=O)cc2)ccc1C(=O)c1c(F)cccc1F ?
# output 6.44

---

target: Receptor tyrosine-protein kinase erbB-2 (Homo sapiens, UniProt P04626)
Sequence (P04626 whole entry): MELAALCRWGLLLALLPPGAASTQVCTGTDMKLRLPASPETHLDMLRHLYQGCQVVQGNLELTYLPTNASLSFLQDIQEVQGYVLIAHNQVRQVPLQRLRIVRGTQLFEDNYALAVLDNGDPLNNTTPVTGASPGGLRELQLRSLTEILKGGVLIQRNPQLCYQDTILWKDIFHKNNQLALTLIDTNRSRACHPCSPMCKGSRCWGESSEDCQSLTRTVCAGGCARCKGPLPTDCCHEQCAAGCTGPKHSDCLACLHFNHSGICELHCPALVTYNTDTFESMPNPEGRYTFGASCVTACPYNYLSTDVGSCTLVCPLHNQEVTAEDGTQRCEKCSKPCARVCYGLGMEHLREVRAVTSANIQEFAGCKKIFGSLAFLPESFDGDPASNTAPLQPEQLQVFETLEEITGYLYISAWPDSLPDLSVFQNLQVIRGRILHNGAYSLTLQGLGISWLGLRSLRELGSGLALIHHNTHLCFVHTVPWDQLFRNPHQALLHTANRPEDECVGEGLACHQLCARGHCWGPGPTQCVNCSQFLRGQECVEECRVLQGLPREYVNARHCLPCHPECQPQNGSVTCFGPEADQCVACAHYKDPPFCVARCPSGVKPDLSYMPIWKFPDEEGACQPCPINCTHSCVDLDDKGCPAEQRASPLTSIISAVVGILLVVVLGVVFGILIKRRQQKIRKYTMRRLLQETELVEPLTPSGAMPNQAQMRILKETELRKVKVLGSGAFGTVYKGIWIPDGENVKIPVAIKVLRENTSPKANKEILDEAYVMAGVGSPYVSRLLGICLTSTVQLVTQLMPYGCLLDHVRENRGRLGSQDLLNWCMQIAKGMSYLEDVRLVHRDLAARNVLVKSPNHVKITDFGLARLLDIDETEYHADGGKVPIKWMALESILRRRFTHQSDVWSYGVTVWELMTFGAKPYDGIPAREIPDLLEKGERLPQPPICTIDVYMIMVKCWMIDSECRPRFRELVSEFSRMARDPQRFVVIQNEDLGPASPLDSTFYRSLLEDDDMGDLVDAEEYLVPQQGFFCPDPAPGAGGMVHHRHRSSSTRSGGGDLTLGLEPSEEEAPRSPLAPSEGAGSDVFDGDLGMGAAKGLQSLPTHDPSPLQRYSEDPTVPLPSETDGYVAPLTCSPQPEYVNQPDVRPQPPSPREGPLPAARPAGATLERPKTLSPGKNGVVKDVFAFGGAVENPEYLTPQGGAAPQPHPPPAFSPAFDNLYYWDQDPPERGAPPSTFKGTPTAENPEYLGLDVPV
measurement type: IC50

# input Quick one: IC50 for CCCCOc1cc(Nc2ccc(S(N)(=O)=O)cc2)nc(N)c1C(=O)c1c(F)cccc1F ?
# output > 100 µM

---

target: Vascular endothelial growth factor receptor 2 (Homo sapiens, UniProt P35968); test: In vitro inhibitory concentration against Vascular endothelial growth factor receptor 2
Sequence (P35968 whole entry): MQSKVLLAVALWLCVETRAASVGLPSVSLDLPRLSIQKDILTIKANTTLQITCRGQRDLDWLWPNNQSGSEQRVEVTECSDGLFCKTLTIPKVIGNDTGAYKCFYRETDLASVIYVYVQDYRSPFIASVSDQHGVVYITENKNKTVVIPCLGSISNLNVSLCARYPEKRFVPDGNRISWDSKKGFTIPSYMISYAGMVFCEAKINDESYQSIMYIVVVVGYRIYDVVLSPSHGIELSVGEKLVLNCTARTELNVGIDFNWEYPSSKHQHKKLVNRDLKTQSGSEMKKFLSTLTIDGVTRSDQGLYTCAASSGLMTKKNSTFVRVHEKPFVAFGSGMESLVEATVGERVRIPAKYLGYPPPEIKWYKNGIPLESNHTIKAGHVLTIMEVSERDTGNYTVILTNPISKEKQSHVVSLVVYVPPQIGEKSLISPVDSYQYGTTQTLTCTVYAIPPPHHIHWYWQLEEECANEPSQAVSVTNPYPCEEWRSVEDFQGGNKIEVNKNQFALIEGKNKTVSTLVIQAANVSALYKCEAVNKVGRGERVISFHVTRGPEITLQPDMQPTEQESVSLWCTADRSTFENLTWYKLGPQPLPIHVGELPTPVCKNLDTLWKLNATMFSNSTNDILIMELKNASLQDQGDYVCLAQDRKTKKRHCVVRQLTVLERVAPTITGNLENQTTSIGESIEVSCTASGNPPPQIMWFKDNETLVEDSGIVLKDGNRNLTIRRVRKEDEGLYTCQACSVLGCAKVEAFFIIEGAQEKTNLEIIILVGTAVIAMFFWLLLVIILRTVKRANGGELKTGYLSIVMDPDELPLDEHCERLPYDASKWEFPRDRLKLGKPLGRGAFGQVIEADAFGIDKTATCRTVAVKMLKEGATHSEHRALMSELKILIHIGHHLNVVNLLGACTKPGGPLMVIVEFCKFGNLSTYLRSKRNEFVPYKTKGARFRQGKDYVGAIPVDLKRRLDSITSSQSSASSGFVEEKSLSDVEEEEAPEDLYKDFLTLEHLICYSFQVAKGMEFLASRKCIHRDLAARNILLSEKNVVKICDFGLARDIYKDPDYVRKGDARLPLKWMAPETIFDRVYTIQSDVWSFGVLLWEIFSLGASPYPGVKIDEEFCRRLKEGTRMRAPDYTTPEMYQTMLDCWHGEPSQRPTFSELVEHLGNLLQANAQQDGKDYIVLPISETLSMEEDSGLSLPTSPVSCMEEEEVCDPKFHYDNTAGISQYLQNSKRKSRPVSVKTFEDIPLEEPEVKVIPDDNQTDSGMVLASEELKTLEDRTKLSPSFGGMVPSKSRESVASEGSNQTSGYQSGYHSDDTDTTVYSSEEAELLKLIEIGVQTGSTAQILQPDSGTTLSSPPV
I'd appreciate it if you could supply IC50 values for the items below.

# input Quick one: IC50 for CCCCOc1cc(Nc2ccc(S(N)(=O)=O)cc2)nc(N)c1C(=O)c1c(F)cccc1F ?
# output > 100 µM

# input Quick one: IC50 for Nc1nc(Nc2ccc(S(N)(=O)=O)cc2)ccc1C(=O)c1c(F)cccc1F ?
# output > 100 µM

---

I'd appreciate it if you could supply IC50 values for the items below.

# input For the record CN(C)S(=O)(=O)c1ccc(Nc2ccc(C(=O)c3c(F)cccc3F)c(N)n2)cc1 , what value of IC50 is listed for Epidermal growth factor receptor (Homo sapiens)?
# output > 100 µM

# input For the record Nc1nc(Nc2ccc(S(N)(=O)=O)cc2)ccc1C(=O)c1c(F)cccc1F , what value of IC50 is listed for Epidermal growth factor receptor (Homo sapiens)?
# output > 100 µM

---

I'd appreciate it if you could supply pIC50 values for the items below.
tested on: A-375; test: Compound tested for anti-proliferative activity against A375 cells; format: functional, cell-based; conditions: Homo sapiens
In textbook form, pIC50 equals minus log to base ten of the concentration in mol/L.

# input Quick one: pIC50 for CCCCOc1cc(Nc2ccc(S(N)(=O)=O)cc2)nc(N)c1C(=O)c1c(F)cccc1F ?
# output 5.54

# input Quick one: pIC50 for Nc1nc(Nc2ccc(S(N)(=O)=O)cc2)ccc1C(=O)c1c(F)cccc1F ?
# output 5.19

---

assay: In vitro inhibitory concentration against cyclin-dependent kinase 1; set-up: species or system Homo sapiens
measurement type: IC50

# input Quick one: IC50 for Nc1ccc(C(=O)c2cccs2)c(N)n1 ?
# output > 100 µM

# input Quick one: IC50 for CCN(CC)S(=O)(=O)c1ccc(Nc2ccc(C(=O)c3ccco3)c(N)n2)cc1 ?
# output > 100 µM

# input Quick one: IC50 for CC(=O)Nc1ccccc1Nc1ccc(C(=O)c2c(F)cccc2F)c(N)n1 ?
# output > 100 µM

# input Quick one: IC50 for Nc1nc(Nc2ccc(S(=O)(=O)N(Cc3ccccc3)Cc3ccccc3)cc2)ccc1C(=O)c1c(F)cccc1F ?
# output > 10 µM

# input Quick one: IC50 for Nc1nc(Nc2ccccc2NS(=O)(=O)c2ccccc2)ccc1C(=O)c1c(F)cccc1F ?
# output > 100 µM

# input Quick one: IC50 for Nc1nc(Nc2ccccc2NC(=O)c2ccccc2)ccc1C(=O)c1c(F)cccc1F ?
# output > 100 µM

# input Quick one: IC50 for Nc1nc(Nc2ccc(C(=O)O)cc2)ccc1C(=O)c1c(F)cccc1F ?
# output ~10 µM

# input Quick one: IC50 for CCN(CC)S(=O)(=O)c1ccc(Nc2ccc(C(=O)c3ccccc3)c(N)n2)cc1 ?
# output > 100 µM

# input Quick one: IC50 for Nc1ccc(C(=O)c2ccco2)c(N)n1 ?
# output > 100 µM

# input Quick one: IC50 for Nc1nc(Nc2ccccc2[N+](=O)[O-])ccc1C(=O)c1c(F)cccc1F ?
# output > 10 µM
